biological target: human Adenosine A2b receptor (Homo sapiens (Human), UniProt P29275); assay: Adenosine receptor TR-FRET binding assay (A2b); settings: TR-FRET, inhibition of binding of 30 nM CA200645, CHO cell membranes
Sequence (P29275 whole entry): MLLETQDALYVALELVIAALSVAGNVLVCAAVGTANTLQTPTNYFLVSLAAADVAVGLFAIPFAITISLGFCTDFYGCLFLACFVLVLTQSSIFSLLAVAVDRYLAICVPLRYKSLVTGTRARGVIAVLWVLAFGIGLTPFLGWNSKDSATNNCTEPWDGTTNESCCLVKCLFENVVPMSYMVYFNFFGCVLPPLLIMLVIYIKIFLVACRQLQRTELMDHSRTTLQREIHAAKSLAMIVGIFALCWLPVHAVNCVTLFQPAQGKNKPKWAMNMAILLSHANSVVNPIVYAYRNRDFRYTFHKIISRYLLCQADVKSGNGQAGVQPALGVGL
pKi: −log10 of the molar value.
attribute-measured: pKi

Example molecules with recorded pKi:
Cc1cc(-c2sc(NC(=O)N3CC4(COC4)C3)nc2-c2cccc(C#N)c2)cc([C@@H](C)O)n1 (single isomer, unassigned) [Example 12.3a]: 8.59
Cc1cc(-c2sc(NC(=O)N3CC4(COC4)C3)nc2-c2cccc(C#N)c2)cc(C2CC2)n1: 8.80
Cc1cc(-c2sc(NC(=O)N3CCN[C@@H](C(C)(C)O)C3)nc2-c2cccc(C#N)c2)cc(Cl)n1: 7.91

[I] Cc1cc(-c2sc(NC(=O)N3CCS(=N)(=O)CC3)nc2-c2cccc(C#N)c2)cc(C)n1
[II] Cc1cc(-c2sc(NC(=O)N3CC4(CCN(C)C4=O)C3)nc2-c2cccc(C#N)c2)cc(C)n1
[III] Cc1cc(-c2sc(NC(=O)N3CCn4ccnc4C3)nc2-c2cccc(C#N)c2)cc(C)n1
[IV] Cc1cc(-c2sc(NC(=O)N3CC[C@H]3C)nc2-c2cccc(C#N)c2)cc(C)n1
Highest pKi first, then in falling order down to the smallest. Answer by naming the labels in the order asked. IV, III, II, I
(IV: 9.05, III: 8.85, II: 8.59, I: 8.36)

[P] Cc1cc(-c2sc(NC(=O)N3CC[C@@H](C(C)(C)O)C3)nc2-c2cccc(C#N)c2)cc(C)n1
[Q] Cc1cc(-c2sc(NC(=O)N3CCN4CCC3C4)nc2-c2cccc(C#N)c2)cc(C)n1 (stereo not drawn)
Thinking about recorded pKi values, which is higher, P or Q ? Identify your selection by its label. P
